assay: Pseudomonas biofilm growth suppression – PAO1 strain, BacTiter-Glo luminescence, LB-PBS, primary screen (AID 1144); conditions: P. aeruginosa PAO1 biofilm, 12 h, higher = more signal

[
  {
    "COMPOUND": "O=c1cccc(-c2ccccc2Cl)o1",
    "z-score": 0.387
  },
  {
    "COMPOUND": "C=CCOC(=O)[C@H]1[C@@H]2C(=O)O[C@@H](c3ccccc3)[C@@H](c3ccccc3)N2[C@@H](c2ccc(OCCOC(=O)[C@@H]3C[C@@H]4C(=O)N5CCC[C@H]5C(=O)N4[C@@H]3c3cccc(OCCO)c3)cc2)[C@]12C(=O)Nc1ccc(I)cc12",
    "z-score": -0.615
  },
  {
    "COMPOUND": "CCN(CC)c1ccc(N2CC=CC34O[C@@H]5/C=C\\CCC(C)OC(=O)C5[C@H]3C(=O)N(CCCCCO)[C@@H]4C2=O)cc1 (some centres undefined)",
    "z-score": 1.24
  },
  {
    "COMPOUND": "C=CCC(OC(C)=O)[C@@H]1[C@@H](N(Cc2cc3ccccc3o2)C(=O)Cc2ccc(OC)cc2)c2cc(OCCCO)ccc2N1C(=O)c1ccc2ccccc2c1 (some centres undefined)",
    "z-score": -0.352
  },
  {
    "COMPOUND": "COCCOC(=O)N1C(=O)[C@@]2(c3cc(C#CCCO)ccc31)[C@H](c1ccc(O)cc1)N1[C@H](c3ccccc3)[C@H](c3ccccc3)OC(=O)[C@H]1[C@@H]2C(=O)N1CCN(c2ncccn2)CC1",
    "z-score": -0.185
  },
  {
    "COMPOUND": "CC(C)[C@@H](C(=O)O)n1cc(C2(O)CCCCC2)nn1",
    "z-score": -0.78
  },
  {
    "COMPOUND": "COc1ccc([Si](C)(C)[C@@H]2[C@@H](CCn3cc(CCO)nn3)O[C@]3(C(=O)N(Cc4cccc(N5C(=O)c6cccc7cccc5c67)c4)c4ccccc43)[C@H]2C)cc1",
    "z-score": 0.000859
  },
  {
    "COMPOUND": "COc1ccc(C(O)C2C=CC3C(=O)N(C)C(=O)C3N2N(c2ccccc2)c2ccccc2)c2ccccc12 (centres undefined)",
    "z-score": -0.347
  },
  {
    "COMPOUND": "[N-]=[N+]=NCc1ccccc1[C@H]1OC(c2ccc(OCCCO)cc2)=N[C@@]1(Cc1ccccc1)C(=O)N1CCCCC1",
    "z-score": 0.437
  },
  {
    "COMPOUND": "CCC(CC)C(O)C1C=CC2C(=O)N(c3ccccc3)C(=O)C2N1Nc1ccccc1 (centres undefined)",
    "z-score": -1.63
  },
  {
    "COMPOUND": "COCCOC(=O)N1C(=O)[C@@]2(c3ccccc31)[C@H](C(=O)N1CCCCCCC1)[C@H]1C(=O)O[C@H](c3ccccc3)[C@H](c3ccccc3)N1[C@@H]2c1ccc(OCCO)cc1",
    "z-score": -0.276
  },
  {
    "COMPOUND": "CO[C@H]1O[C@H](CO)[C@@H](OC(=O)Nc2cccc(F)c2)[C@H](OC(=O)Nc2ccccc2)[C@H]1OC(=O)Nc1ccccc1",
    "z-score": -0.703
  },
  {
    "COMPOUND": "OCCCC1=CC(C2CC2)N(Cc2cccc(OC(F)(F)F)c2)CC1 (centres undefined)",
    "z-score": 0.129
  },
  {
    "COMPOUND": "CC(C)(C)OC(=O)CC[C@]1(C(N)=O)N=C(c2ccc(OCCCO)cc2)O[C@H]1c1ccccc1",
    "z-score": 0.304
  }
]

###

test: FRG1 expression reporter modulators in myotubes – cell-based, C2C12 myotubes, firefly/Renilla luciferase, luminescence, FRG1 inhibition for FSHD, primary screen (AID 1084); conditions: FRG1 promoter luciferase, higher = more signal, called active from +8 up or from −8 down
So basically: z-score at -0.9 or higher? That is Condition met. Lower than -0.9? That is Condition not met.

[
  {
    "COMPOUND": "COc1ccc([Si](C)(C)[C@H]2[C@H](CCO)O[C@@]3(C(=O)N(Cc4ccccc4)c4ccc(N5CCCCC5=O)cc43)[C@@H]2C)cc1",
    "LABEL": "Condition not met"
  },
  {
    "COMPOUND": "CCCC[C@H]1C[C@@H]1[C@@H]1N(P(=O)(c2ccccc2)c2ccccc2)C[C@@](O)(c2ccccc2)CC12CC2",
    "LABEL": "Condition met"
  },
  {
    "COMPOUND": "CC(C)OC(=O)C=C1C[C@@H](c2cccc(Cl)c2)O[C@@H](c2cccc(Cl)c2)O1",
    "LABEL": "Condition met"
  },
  {
    "COMPOUND": "COc1ccc([Si](C)(C)[C@H]2[C@H](CCn3cc([C@H](O)c4ccccc4)nn3)O[C@@]3(C(=O)N(C)c4ccccc43)[C@@H]2C)cc1",
    "LABEL": "Condition not met"
  },
  {
    "COMPOUND": "COCCCNC(=O)[C@@H]1c2ccccc2C(=O)N(Cc2ccccc2)[C@H]1c1ccc(CO)cc1",
    "LABEL": "Condition met"
  },
  {
    "COMPOUND": "CC1CC/C=C\\[C@H]2OC34C=CCN(Cc5ccccc5)C(=O)[C@H]3N(C(C)CO)C(=O)[C@@H]4C2C(=O)O1 (stereo partly specified)",
    "LABEL": "Condition met"
  },
  {
    "COMPOUND": "Cc1ccc(S[C@]2(C(=O)O)CC(=O)N(Cc3ccccc3C(F)(F)F)[C@@H]2c2ccc(CO)cc2I)cc1",
    "LABEL": "Condition met"
  },
  {
    "COMPOUND": "O=C1C2C=CC(C(O)C=Cc3ccc([N+](=O)[O-])cc3)N(n3cnnc3)C2C(=O)N1Cc1ccccc1 (stereo unspecified)",
    "LABEL": "Condition met"
  },
  {
    "COMPOUND": "CCOc1cc(C(O)C2C=CC3C(=O)N(c4ccccc4)C(=O)C3N2Nc2ccc(C(C)C)cc2)ccc1O (stereo unspecified)",
    "LABEL": "Condition met"
  },
  {
    "COMPOUND": "COc1ccc([Si](C)(C)[C@@H]2[C@@H](CCn3cc([C@H](O)c4ccccc4)nn3)O[C@]3(C(=O)N(Cc4cccc(N5CCC5=O)c4)c4ccccc43)[C@H]2C)cc1",
    "LABEL": "Condition met"
  },
  {
    "COMPOUND": "[N-]=[N+]=Nc1ccccc1[C@H]1OC(c2ccc(OCCCO)cc2)=N[C@@]1(Cc1ccccc1)C(=O)N1CCOCC1",
    "LABEL": "Condition not met"
  },
  {
    "COMPOUND": "CCCCC(=C=CC[C@@H](O)c1ccc(CO)o1)CCO",
    "LABEL": "Condition met"
  },
  {
    "COMPOUND": "C[N+](C)(C)CCCC[C@@H]1NC(=O)[C@@H]2C[C@H](C(=O)NCCCCCN)[C@H](c3ccc(O)cc3)N2C1=O",
    "LABEL": "Condition not met"
  },
  {
    "COMPOUND": "C=C(CCCC)/C(=C/C[C@@H](OC(C)=O)c1cccc(OCCO)c1)c1cnc2ccccc2c1",
    "LABEL": "Condition met"
  },
  {
    "COMPOUND": "CCCC=C(CCC)[C@@H](NC(=O)OCC(C)C)c1ccccc1",
    "LABEL": "Condition met"
  },
  {
    "COMPOUND": "[N-]=[N+]=NCc1ccccc1[C@@H]1OC(c2ccc(OCCCO)cc2)=N[C@]1(CCS(=O)(=O)c1ccccc1)C(=O)N1CCOCC1",
    "LABEL": "Condition met"
  },
  {
    "COMPOUND": "COc1cc2c(cc1O)C(c1cccs1)N(Cc1cccc(OC(F)(F)F)c1)CC2 (stereo unspecified)",
    "LABEL": "Condition met"
  },
  {
    "COMPOUND": "CC(C)[Si](C#CCCCC#N)(Oc1ccccc1Br)C(C)C",
    "LABEL": "Condition met"
  },
  {
    "COMPOUND": "C#CCN1[C@@H](Cc2ccc(O)cc2)C(=O)O[C@H](Cc2ccccc2)[C@@H]1/C=C/C1CC1",
    "LABEL": "Condition not met"
  },
  {
    "COMPOUND": "CCOC(=O)C[C@H]1[C@H](OC(=O)c2ccc(C(=O)c3ccccc3)cc2)[C@@H](NC(=O)Cc2ccc(OC)cc2)c2cc(OCCCO)ccc2N1C(=O)c1ccc2ccccc2n1",
    "LABEL": "Condition not met"
  },
  {
    "COMPOUND": "CO[C@H]1O[C@H](CO)[C@@H](OC(=O)Nc2ccccc2)[C@@H]2OC(=O)[C@@H](Cc3ccc4ccccc4c3)C/C=C/C[C@H](Cc3ccc4ccccc4c3)C(=O)O[C@@H]12",
    "LABEL": "Condition not met"
  },
  {
    "COMPOUND": "COc1cc2c(cc1O)C(c1cccs1)N(Cc1ccc([N+](=O)[O-])o1)CC2 (stereo unspecified)",
    "LABEL": "Condition not met"
  },
  {
    "COMPOUND": "NC(=O)[C@@]1(Cc2ccccc2)N=C(c2ccc(OCCCO)cc2)O[C@H]1c1ccccc1",
    "LABEL": "Condition not met"
  },
  {
    "COMPOUND": "COC(=O)[C@@]1(Cc2ccccc2)[C@H]2c3cc(C(=O)N(C)C)n(CCc4c[nH]c5ccc(O)cc45)c3C[C@H]2CN1C(=O)c1ccccc1",
    "LABEL": "Condition met"
  },
  {
    "COMPOUND": "CCOC(=O)[C@H]1C/C=C/C[C@H](C(=O)OCC)C(=O)O[C@H]2[C@@H](OC)O[C@H](CO)[C@@H](OC(=O)c3ccc(Br)cc3)[C@@H]2OC1=O",
    "LABEL": "Condition met"
  },
  {
    "COMPOUND": "NCCCCCCNC(=O)[C@H]1C[C@H]2C(=O)N[C@@H](Cc3ccccc3)C(=O)N2[C@H]1c1cccc(OCCO)c1",
    "LABEL": "Condition met"
  },
  {
    "COMPOUND": "CN(C)CCCCNC(=O)[C@@H]1C[C@@H]2C(=O)N[C@@H](CCCCN)C(=O)N2[C@@H]1c1ccc(O)cc1",
    "LABEL": "Condition met"
  },
  {
    "COMPOUND": "COc1cc(OC)c(C(O)C2C=CC3C(=O)NC(=O)C3N2Nc2ccccn2)cc1Br (stereo unspecified)",
    "LABEL": "Condition met"
  },
  {
    "COMPOUND": "COc1ccc(NC(=O)O[C@H]2[C@H](OC(=O)c3cc4ccccc4[nH]3)[C@@H](OC(=O)c3cc4ccccc4[nH]3)[C@@H](OC)O[C@@H]2CO)cc1",
    "LABEL": "Condition met"
  },
  {
    "COMPOUND": "C=C(/C(=C/C[C@H](OC(=O)c1ccncc1)c1ccc(OCCO)cc1)c1cc(C(=O)OC)ccc1OC)C(C)C",
    "LABEL": "Condition met"
  }
]
